Values compiled from the supplement of paper PMC7801607.

# Test system: Plasmodium falciparum NF54 asexual blood stage
# PROTOCOL: % inhibition of asexual blood stage proliferation (pLDH); higher = more inhibition
# CONDITIONS_USED: 2 µM; 72 h
EXPERIMENTAL_READOUT: % inhibition of asexual blood stage proliferation (%)

# COMPOUND, VALUE_OBSERVED
records = [
    ("NS(=O)(=O)c1ccc(NC(=O)NC(c2ccccc2)c2ccccc2)cc1", 3.15),
    ("CC(C)(C)c1ccc(OCCn2nc(C(=O)O)c3ccccc3c2=O)cc1", 4.78),
    ("CC(C)Nc1nc2cc(Cl)c(Cl)cc2n1[C@H]1O[C@@H](CO)[C@H](O)[C@@H]1O", 66.8),
    ("CN(C)CCCNC(=O)c1ccc(-c2cc(O)c3ncccc3c2)cc1", 68.6),
    ("Nc1cc(-c2nc3ccccc3[nH]2)n[nH]c1=O", 31.5),
    ("COc1cc(C(C(=O)NC2CCCCC2)N(C(=O)Cc2c[nH]c3ccccc23)c2ccc(C(C)C)cc2)cc(OC)c1OC (stereo not given)", 22.1),
    ("CC(C)C(=O)N[C@H]1[C@H]([C@H](O)[C@H](O)CO)OC(C(=O)O)=C[C@@H]1N=[N+]=[N-]", 9.36),
    ("CCC(C)n1ncn(-c2ccc(N3CCN(c4ccc(OCC5COC(Cn6cncn6)(c6ccc(Cl)cc6Cl)O5)cc4)CC3)cc2)c1=O (stereo not given)", 10.1),
    ("CONC(=N)c1ccc(-c2ccc(-c3ccc(C(=N)NOC)cc3)o2)cc1", -3.01),
    ("O[C@@](Cn1cnnn1)(c1ccc(F)cc1F)C(F)(F)c1ccc(-c2ccc(OCC(F)(F)F)cc2)cn1", 7.2),
    ("CC[C@H]1OC(=O)[C@H](C)[C@@H](O[C@H]2C[C@@](C)(OC)[C@@H](O)[C@H](C)O2)[C@H](C)[C@@H](O[C@@H]2O[C@H](C)C[C@H](N(C)C)[C@H]2O)[C@](C)(O)C[C@@H](C)C(=O)[C@H](C)[C@@H](O)[C@]1(C)O", -1.14),
    ("CCOC(=O)/C=C/[C@H](C[C@@H]1CCNC1=O)NC(=O)[C@@H](CC(=O)[C@@H](NC(=O)c1cc(C)on1)C(C)C)Cc1ccc(F)cc1", 16.3),
    ("Nc1nc(-c2ccccc2)nc2c1ncn2[C@@H]1O[C@H](COS(=O)(=O)NC(=O)c2ccccc2O)[C@@H](O)[C@H]1O", 19.4),
    ("C=CCN(C(=O)OCc1ccc([N+](=O)[O-])cc1)C1CCN(CC[C@](C)(CN(C)S(=O)(=O)c2ccccc2)c2ccccc2)CC1", 59.7),
    ("COc1ccc(NC(=O)c2cc3ccccn3n2)cc1", 20.3),
]

====

# Test system: CHO
# PROTOCOL: % viability of CHO cells (MTT); higher = less toxic
# CONDITIONS_USED: 2 µM; 48 h
EXPERIMENTAL_READOUT: % viability of CHO cells (%)

# COMPOUND, VALUE_OBSERVED
measured = [
    ("Clc1cc(Cl)c2c(c1)CCc1ccccc1C2n1ccnc1 (stereo unspecified)", 100),
    ("CCCCCc1ccc(C(=O)NCCn2cc(CCCCCc3cnc(N)[nH]3)nn2)cc1", 125),
    ("Cc1onc(-c2ccccc2Cl)c1C(=O)N[C@@H]1C(=O)N2[C@@H]1SC(C)(C)[C@@H]2C(=O)O", 126),
    ("COc1ccc2c(c1)cc(CNC(=O)c1cc3ccccc3o1)n2CC(=O)O", 90.6),
    ("CC(C)c1ccc(COc2cccc(-c3cc(S(C)=O)c(C#N)c(=O)[nH]3)c2)cc1 (stereo unspecified)", 91),
    ("Cc1cc(O)c2c(c1)C(=O)c1c(I)c(O)c(I)c(O)c1C2=O", 81.3),
    ("CCc1cc(CCC(=O)Nc2ccccc2O)c(=O)[nH]c1C", 90.7),
    ("CC(N)C12CC3CC(CC(C3)C1)C2 (stereo unspecified)", 115),
    ("NC[C@H]1OB(O)c2c(OCCCO)cccc21", 123),
    ("O=c1cc(NCCCN[C@@H]2CCOc3c(Br)cc(Br)cc32)[nH]c2ccsc12", 275),
    ("CCCCc1ccc(-c2cc(C(=O)O)cc(-c3ccc(Cl)cc3)n2)cc1", 93.4),
    ("NC(=O)c1cnccn1", 96),
    ("CCNC(=O)Nc1cc2c(-c3ccnc(C)c3)ccc(CNC(=O)OC)c2cn1", 92.8),
    ("CCOC(=O)/C=C/[C@H](C[C@@H]1CCNC1=O)NC(=O)[C@@H](CC(=O)[C@@H](NC(=O)c1cc(C)on1)C(C)C)Cc1ccc(F)cc1", 124),
    ("NCc1ccc(S(N)(=O)=O)cc1", 83.8),
    ("O=C(Nc1ccc(Cl)c(C(F)(F)F)c1)C(CCCl)C(=O)Nc1ccc(Cl)c(C(F)(F)F)c1", 84),
    ("N[C@@H]1CN(c2c(F)cc3c(=O)c(C(=O)O)cn([C@@H]4C[C@@H]4F)c3c2Cl)CC12CC2", 94.4),
    ("CC1(C)Cc2c(C#N)c(SCCc3ccccc3)nc(N3CCOCC3)c2CO1", 112),
    ("CCOc1ccc(/C=N/NC(=O)C2CC2c2ccc(C(C)(C)C)cc2)cc1OCC (stereo unspecified)", 96.4),
    ("N[C@H]1CCC[C@H]1C(=O)O", 109),
    ("CCN(CC)CCCC(C)Nc1ccnc2cc(Cl)ccc12 (stereo unspecified)", 95.9),
    ("N#CCN1C(=O)COc2cc(F)c(N3C(=O)c4ccccc4C3=O)cc21", 91.1),
    ("O=C(CP(=O)(O)O)NCCc1cccc(Oc2ccccc2)c1", 108),
    ("CCn1cc(C(=O)O)c(=O)c2cc(F)c(N3CCNC(C)C3)c(F)c21 (stereo unspecified)", 104),
    ("CCCCCCCCC(CP(=O)(O)C(C)N)C(=O)O (stereo unspecified)", 97.4),
    ("CC(C)(C)c1cc(C(=O)/C(C#N)=N/Nc2cccc(Cl)c2)no1", 113),
    ("COc1cc(NCc2ccc3nc(N)nc(N)c3c2C)cc(OC)c1OC", 109),
    ("O=C(O)/C=C/C=C/c1cccc(Oc2cc(Cl)cc(Cl)c2)c1", 97.3),
    ("O=C(NC1CCCc2c1[nH]c1ccc(Cl)cc21)c1ccccn1 (stereo unspecified)", 96.3),
    ("COc1ccc2nc(-c3ccccc3)cc(O)c2c1", 85.4),
    ("CCC(CC)[C@H](NC(C)=O)[C@@H]1[C@H](O)[C@@H](C(=O)O)C[C@H]1NC(=N)N", 88.2),
    ("O=C(c1ccc(F)cc1)N1CCN2C(=O)c3ccccc3C12c1ccccc1 (stereo unspecified)", 116),
    ("CCc1nc(N)nc(N)c1C#CC(C)c1cc(OC)cc(-c2ccncc2)c1 (stereo unspecified)", 89.5),
    ("CC(C)c1cc2c(cc1S(=O)(=O)O)[C@@]1(C)CCC[C@@](C)(C(=O)O)[C@@H]1CC2", 93.3),
    ("Nc1nc(NC2Cc3ccc(F)cc3C2)nc(N2CCCCC2)n1 (stereo unspecified)", 96),
    ("Cc1nc2ccc(Cl)cc2c(-c2ccccc2)c1CC(=O)O", 121),
    ("O=C(CSc1nnc(Br)n1-c1ccc(C2CC2)c2ccccc12)Nc1ccc(C(=O)O)cc1Cl", 98.5),
    ("N=C(N)c1ccc(COc2ccc(Cl)cc2)cc1", 103),
    ("COc1c(F)c(F)cc2c(=O)c(C(=O)O)cn(C3CC3)c12", 82.2),
    ("COC1CC2CCC(C)C(O)(O2)C(=O)C(=O)N2CCCCC2C(=O)OC(C(C)CC2CCC(OCCO)C(OC)C2)CC(=O)C(C)/C=C(\\C)C(O)C(OC)C(=O)C(C)CC(C)/C=C/C=C/C=C/1C (stereo unspecified)", 92.8),
    ("O=c1cc(OCc2ccccc2)ccn1Cc1ccccc1", 82.6),
]

====

# Tested on: CHO
# PROTOCOL: % viability of CHO cells (MTT); higher = less toxic
# CONDITIONS_USED: 2 µM; 48 h

# COMPOUND, TARGET_SYSTEM, VALUE_UNITS, % viability of CHO cells
measured = [
    ("Clc1cc2nc(C3CCNCC3)n(Cc3ccc(CNCCc4cnc[nH]4)cc3)c2cc1Cl", "CHO", "%", 88.7),
    ("Cc1cc(CCCOc2c(C)cc(-c3noc(C(F)(F)F)n3)cc2C)on1", "CHO", "%", 103),
    ("OCCC#Cc1nc(-c2ccc(F)cc2)c(-c2ccncc2)n1CCCc1ccccc1", "CHO", "%", 107),
    ("CCCC1(C2CC2)c2cc(Cl)ccc2NC(=O)N1C (stereo not given)", "CHO", "%", 60.2),
    ("O=C(O)c1ccccc1Sc1ncnc2sc3c(c12)CCC3", "CHO", "%", 103),
    ("O=S(=O)(NCB(O)O)c1ccc(-c2nnn[nH]2)cc1C(F)(F)F", "CHO", "%", 86.3),
    ("Cc1nc(-c2ccc(C3N(C)c4ccc(F)cc4C(=O)N3c3ccccc3)s2)cs1 (stereo not given)", "CHO", "%", 97.8),
    ("CNCC(=O)OCc1cccnc1N(C)C(=O)OC(C)[n+]1cnn(C[C@](O)(c2cc(F)ccc2F)[C@@H](C)c2nc(-c3ccc(C#N)cc3)cs2)c1 (stereo not given in full)", "CHO", "%", 94.9),
    ("CC(=O)Nc1cc(NS(=O)(=O)c2ccc(Cl)cc2)cc2c(Cl)n[nH]c12", "CHO", "%", 108),
    ("O=C(Nc1nnc(-c2ccc(Cl)cc2)o1)c1nc2ccccc2s1", "CHO", "%", 111),
]
